- Test system: COR-L 105
- Assay name: relative viability (nuclei count vs DMSO), 5 days (fraction); higher = more cells survive
- Condition set: first compound 0.6325 µM
Value kind: relative viability
Answers are plain numbers.

Example entries and their recorded answers appear below.
[[record]]
compound = "CN1CCN(CCOc2cc(OC3CCOCC3)c3c(Nc4c(Cl)ccc5c4OCO5)ncnc3c2)CC1 [Saracatinib] + N=C(N)NC(=N)NCCc1ccccc1 [Phenformin] (partner 250 µM)"
tested_target = "COR-L 105"
value_kind = "relative viability"
reported_measurement = 0.438

[[record]]
compound = "CN1CCN(CCOc2cc(OC3CCOCC3)c3c(Nc4c(Cl)ccc5c4OCO5)ncnc3c2)CC1 [Saracatinib] + CC(C)C[C@H](NC(=O)[C@H](Cc1ccccc1)NC(=O)c1cnccn1)B(O)O [Bortezomib] (partner 0.002 µM)"
tested_target = "COR-L 105"
value_kind = "relative viability"
reported_measurement = 0.707


Here is the next item to consider.
Query: Requested field: relative viability. Item: CN1CCN(CCOc2cc(OC3CCOCC3)c3c(Nc4c(Cl)ccc5c4OCO5)ncnc3c2)CC1 [Saracatinib] + CCNC(=O)c1noc(-c2cc(C(C)C)c(O)cc2O)c1-c1ccc(CN2CCOCC2)cc1 [Luminespib] (partner 0.01 µM)
Result: 0.608

====

- System: LK-2
- Assay name: relative viability (nuclei count vs DMSO), 5 days (fraction); higher = more cells survive
- Condition set: first compound 0.8 µM
Value kind: relative viability
Answers are plain numbers.

Batch lookup, relative viability per entry.
1. Nc1cccc2c1CN(C1CCC(=O)NC1=O)C2=O (stereo not given) [Lenalidomide] + O=C(CCCCCCC(=O)Nc1ccccc1)NO [Vorinostat] (partner 1 µM)
2. Nc1cccc2c1CN(C1CCC(=O)NC1=O)C2=O (stereo not given) [Lenalidomide] + Nc1nc2[nH]cc(CCc3ccc(C(=O)N[C@@H](CCC(=O)O)C(=O)O)cc3)c2c(=O)[nH]1 [Pemetrexed] (partner 0.2 µM)
3. Nc1cccc2c1CN(C1CCC(=O)NC1=O)C2=O (stereo not given) [Lenalidomide] + NC(=O)Nc1cc(-c2cccc(F)c2)sc1C(=O)N[C@H]1CCCNC1 [AZD7762] (partner 0.2 µM)
4. Nc1cccc2c1CN(C1CCC(=O)NC1=O)C2=O (stereo not given) [Lenalidomide] + Nc1ncn([C@H]2C[C@H](O)[C@@H](CO)O2)c(=O)n1 [Decitabine] (partner 2 µM)
5. Nc1cccc2c1CN(C1CCC(=O)NC1=O)C2=O (stereo not given) [Lenalidomide] + COc1cc2c(Oc3ccc(NC(=O)C4(C(=O)Nc5ccc(F)cc5)CC4)cc3F)ccnc2cc1OCCCN1CCOCC1 [Foretinib] (partner 0.25 µM)

Result:
[0.252, 0.167, 0.366, 0.177, 1.17]

====

I'd be grateful if you could share measured relative viability for these entries.
- Tested on: Calu-6
- Assay name: relative viability (nuclei count vs DMSO), 5 days (fraction); higher = more cells survive
- Condition set: first compound 20 µM

[[record]]
molecule = "Cc1csc(=NC2CCCCC2)n1/N=C/c1ccc(O)c(O)c1O [MIM1] + CC(C)C[C@H](NC(=O)[C@H](Cc1ccccc1)NC(=O)c1cnccn1)B(O)O [Bortezomib] (partner 0.002 µM)"
reported_measurement = 0.203

[[record]]
molecule = "Cc1csc(=NC2CCCCC2)n1/N=C/c1ccc(O)c(O)c1O [MIM1] + O=C(c1cc(Cc2n[nH]c(=O)c3ccccc23)ccc1F)N1CCN(C(=O)C2CC2)CC1 [Olaparib] (partner 8 µM)"
reported_measurement = 0.152

[[record]]
molecule = "Cc1csc(=NC2CCCCC2)n1/N=C/c1ccc(O)c(O)c1O [MIM1] + Cc1nc(NC(=O)N2CCC[C@H]2C(N)=O)sc1-c1ccnc(C(C)(C)C(F)(F)F)c1 [Alpelisib] (partner 2 µM)"
reported_measurement = 0.208


Batch lookup, relative viability per entry.
1. Cc1csc(=NC2CCCCC2)n1/N=C/c1ccc(O)c(O)c1O [MIM1] + CS(=O)(=O)CCNCc1ccc(-c2ccc3ncnc(Nc4ccc(OCc5cccc(F)c5)c(Cl)c4)c3c2)o1 [Lapatinib] (partner 2 µM)
2. Cc1csc(=NC2CCCCC2)n1/N=C/c1ccc(O)c(O)c1O [MIM1] + CC1(C)CCC(c2ccc(Cl)cc2)=C(CN2CCN(c3ccc(C(=O)NS(=O)(=O)c4ccc(N[C@H](CCN5CCOCC5)CSc5ccccc5)c(S(=O)(=O)C(F)(F)F)c4)cc3)CC2)C1 [Navitoclax] (partner 0.5 µM)

Result:
[0.289, 0.135]
